The reported numbers originate from paper doi:10.1101/2022.05.17.492379.

Biological target: T1, Esrrb (Mus musculus, UniProt Q61539 1-433)
T1 sequence: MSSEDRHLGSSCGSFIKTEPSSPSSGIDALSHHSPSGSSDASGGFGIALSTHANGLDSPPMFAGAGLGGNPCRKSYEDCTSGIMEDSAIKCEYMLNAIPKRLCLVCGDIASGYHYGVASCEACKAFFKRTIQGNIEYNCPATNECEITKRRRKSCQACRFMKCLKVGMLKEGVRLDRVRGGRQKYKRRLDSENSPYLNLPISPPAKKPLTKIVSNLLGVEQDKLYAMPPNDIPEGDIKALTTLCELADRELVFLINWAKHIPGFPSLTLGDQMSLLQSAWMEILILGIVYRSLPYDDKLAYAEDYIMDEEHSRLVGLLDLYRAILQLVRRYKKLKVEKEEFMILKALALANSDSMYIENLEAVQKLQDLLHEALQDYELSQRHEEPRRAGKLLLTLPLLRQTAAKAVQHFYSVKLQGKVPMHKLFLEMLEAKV
Assay: fluorescence polarization
measured.endpoint: pKd
pKd here is simply -log10 of the concentration when that concentration is written in mol/L.

binder	pKd
Nr5a2 motif DNA (dsDNA) DNA 1: GAGAGAGTCAAGGCCATGGCTCACT DNA 2: AGTGAGCCATGGCCTTGACTCTCTC	6.20

Entry Esrrb motif DNA (dsDNA) DNA 1: GAGAGAGTCAAGGTCATGGCTCACT DNA 2: AGTGAGCCATGACCTTGACTCTCTC — recorded pKd = 8.07
